target: Glutathione S-transferase (GST) (Schistosoma japonicum); test: FP
pKd: −log10 of the molar value.
measurement.type: pKd

>  <construct.sequence>
GGUAGAUACGAUGGANNNNNNNNNNNNNNNNNNNNNNNNNNNNNNCAUGACGCGCAGCCAA [18th RNA pool]

>  <result.number>
6.40

$$$$
